Tested on: SARS-CoV-2 Mpro (Severe acute respiratory syndrome coronavirus 2, UniProt P0DTD1)
Protocol description: SARS-CoV-2 Mpro enzymatic inhibition assay (fluorescence)
Assay type: biochemical
Settings: mean; 25 nM protein, 25 μM substrate; 30 min pre-incubation, 60 min at 30° C.; read-out: Mpro_SARS-CoV-2 mean IC50
IC50: recorded values

{"columns": ["Molecule", "IC50 [nM]"],
 "data": [
  ["CC1(C)[C@@H]2[C@@H](C(=O)N[C@H](C#N)C[C@@H]3CCNC3=O)N(C(=O)C3(c4cccc(Cl)c4)CC3)C[C@@H]21 [Compound 123]", 178],
  ["Cc1cccc2[nH]c(C(=O)N3C[C@H]4[C@@H]([C@H]3C(=O)N[C@H](C=O)C[C@@H]3CCNC3=O)C4(C)C)cc12 [Compound 85]", 36.7],
  ["CC1(C)[C@@H]2[C@@H](C(=O)N[C@H](C=O)C[C@@H]3CCNC3=O)N(C(=O)Cc3ccccc3)C[C@@H]21 [Compound 23]", 15.8]
]}

----------
Tested on: SARS-CoV-2 Mpro (Severe acute respiratory syndrome coronavirus 2, UniProt P0DTD1)
Protocol description: SARS-CoV-2 Mpro enzymatic inhibition assay (fluorescence)
Format: biochemical
pIC50: −log10 of the molar value.
pIC50: recorded values

{"columns": ["Compound", "pIC50"],
 "data": [
  ["CC1(C)[C@@H]2[C@@H](C(=O)N[C@H](C=O)C[C@@H]3CCNC3=O)N(C(=O)C3(c4ccccc4)CCCC3)C[C@@H]21 [Compound 17]", 7.82],
  ["CC1CCC(CC(=O)N2C[C@H]3[C@@H]([C@H]2C(=O)N[C@@H](C[C@@H]2CCNC2=O)C(=O)C(=O)NC2CC2)C3(C)C)CC1 (stereo partly drawn) [Compound 105]", 7.14],
  ["C[C@@H](C(=O)N1C[C@H]2[C@@H]([C@H]1C(=O)N[C@H](C=O)C[C@@H]1CCNC1=O)C2(C)C)c1ccccc1 [Compound 37]", 7.69],
  ["CC1(C)[C@@H]2[C@@H](C(=O)N[C@H](C=O)C[C@@H]3CCNC3=O)N(C(=O)c3cc4c(F)cccc4[nH]3)C[C@@H]21 [Compound 15]", 7.84],
  ["COc1cccc2[nH]c(C(=O)N3CC4(CC4)C[C@H]3C(=O)N[C@H](C=O)C[C@@H]3CCNC3=O)cc12 [Compound 31]", 7.72],
  ["CC1(C)[C@@H]2[C@@H](C(=O)N[C@H](C=O)C[C@@H]3CCNC3=O)N(C(=O)CC3CCCC(F)(F)C3)C[C@@H]21 (stereo partly drawn) [Compound 22]", 7.80]
]}

----------
Tested on: SARS-CoV-1 Mpro (Severe acute respiratory syndrome coronavirus, UniProt P0C6X7)
Protocol description: biochemical
IC50: recorded values

{"columns": ["Compound", "IC50 / nM"],
 "data": [
  ["O=C[C@H](C[C@@H]1CCNC1=O)NC(=O)[C@@H]1[C@H]2CCC[C@H]2CN1C(=O)COc1ccc(Cl)cc1Cl", 32.1],
  ["O=C[C@H](C[C@@H]1CCNC1=O)NC(=O)[C@@H]1C[C@@H](Cc2cccc(Cl)c2)CN1C(=O)c1cc2ccccc2[nH]1", 1520],
  ["CC1(C)[C@@H]2[C@@H](C(=O)N[C@H](C=O)C[C@@H]3CCCNC3=O)N(C(=O)CC3CCCCC3)C[C@@H]21", 25.9],
  ["CC1CC(C(=O)N2C[C@H]3[C@@H]([C@H]2C(=O)N[C@H](C=O)C[C@@H]2CCNC2=O)C3(C)C)C1 (stereo partly shown)", 205],
  ["COc1ccc(Cl)c2[nH]c(C(=O)N3C[C@H]4[C@@H]([C@H]3C(=O)N[C@H](C=O)C[C@@H]3CCNC3=O)C4(C)C)cc12", 26.9],
  ["CC1(C)[C@@H]2[C@@H](C(=O)N[C@H](C=O)C[C@@H]3CCNC3=O)N(C(=O)C3(c4ccccc4)CC3)C[C@@H]21", 17.3],
  ["Cn1c(C(=O)N2C[C@H]3[C@@H]([C@H]2C(=O)N[C@H](C=O)C[C@@H]2CCNC2=O)C3(C)C)cc2cc(Cl)ccc21", 79.4],
  ["O=C[C@H](C[C@@H]1CCNC1=O)NC(=O)[C@@H]1C[C@@H](F)CN1C(=O)c1cc2ccccc2[nH]1", 206],
  ["C[C@@H](C(=O)N1C[C@H]2[C@@H]([C@H]1C(=O)N[C@H](C=O)C[C@@H]1CCNC1=O)C2(C)C)C1CCCCC1", 44.1],
  ["O=C[C@H](C[C@@H]1CCNC1=O)NC(=O)[C@@H]1C[C@@H](C2CCCCC2)CN1C(=O)c1cc2cccc(Cl)c2[nH]1", 125],
  ["CC1(C)[C@@H]2[C@@H](C(=O)N[C@H](C=O)C[C@@H]3CCNC3=O)N(C(=O)c3cc4cc(S(C)(=O)=O)ccc4[nH]3)C[C@@H]21", 75.5],
  ["O=C[C@H](C[C@@H]1CCNC1=O)NC(=O)[C@@H]1[C@H]2C[C@H]2CN1C(=O)c1cc2ccccc2[nH]1", 832],
  ["N#C[C@@H]1C[C@@H](C(=O)N[C@H](C=O)C[C@@H]2CCNC2=O)N(C(=O)c2cc3ccccc3[nH]2)C1", 244],
  ["CC1(C)[C@@H]2[C@@H](C(=O)N[C@H](C#N)C[C@@H]3CCNC3=O)N(C(=O)c3cc4cccc(Cl)c4[nH]3)C[C@@H]21", 873],
  ["O=C[C@H](C[C@@H]1CCNC1=O)NC(=O)[C@@H]1CC2(CC2)CN1C(=O)c1cc2cccc(Cl)c2[nH]1", 42.5],
  ["CC1(C)C[C@@H](C(=O)N[C@H](C=O)C[C@@H]2CCNC2=O)N(C(=O)c2cc3cccc(Cl)c3[nH]2)C1", 37.8],
  ["CC(C)(C)CC(=O)N1C[C@H]2[C@@H]([C@H]1C(=O)N[C@H](C=O)C[C@@H]1CCNC1=O)C2(C)C", 100],
  ["O=C[C@H](C[C@@H]1CCNC1=O)NC(=O)[C@@H]1C[C@@H](C2CCCCC2)CN1C(=O)c1cc2cccc(F)c2[nH]1", 95.6],
  ["CC1(C)[C@@H]2[C@@H](C(=O)N[C@H](C=O)C[C@@H]3CCNC3=O)N(C(=O)c3cc4cc5c(cc4[nH]3)OCO5)C[C@@H]21", 52.8],
  ["CC1(C)[C@@H]2[C@@H](C(=O)N[C@H](C=O)C[C@@H]3CCNC3=O)N(C(=O)CC3CCCCC3(F)F)C[C@@H]21 (stereo partly shown)", 46.6],
  ["CC1(C)[C@@H]2[C@@H](C(=O)N[C@H](C=O)C[C@@H]3CCNC3=O)N(C(=O)C3(c4ccccc4)CCCC3)C[C@@H]21", 27.8],
  ["COc1ccc(F)c2[nH]c(C(=O)N3C[C@H]4[C@@H]([C@H]3C(=O)N[C@H](C=O)C[C@@H]3CCNC3=O)C4(C)C)cc12", 31.7],
  ["O=C[C@H](C[C@@H]1CCNC1=O)NC(=O)[C@@H]1CC2(CC2)CN1C(=O)CC1CCCCC1", 84.5],
  ["CC1(C)[C@@H]2[C@@H](C(=O)N[C@H](C=O)C[C@@H]3CCNC3=O)N(C(=O)c3cc4sccc4[nH]3)C[C@@H]21", 51.1],
  ["COc1ccc2cc(C(=O)N3C[C@H]4[C@@H]([C@H]3C(=O)N[C@H](C=O)C[C@@H]3CCNC3=O)C4(C)C)[nH]c2c1", 64.7]
]}

----------
Tested on: MERS Mpro (Middle East respiratory syndrome-related coronavirus, UniProt K9N7C7)
Sequence (K9N7C7 3248-3553 limits assumed): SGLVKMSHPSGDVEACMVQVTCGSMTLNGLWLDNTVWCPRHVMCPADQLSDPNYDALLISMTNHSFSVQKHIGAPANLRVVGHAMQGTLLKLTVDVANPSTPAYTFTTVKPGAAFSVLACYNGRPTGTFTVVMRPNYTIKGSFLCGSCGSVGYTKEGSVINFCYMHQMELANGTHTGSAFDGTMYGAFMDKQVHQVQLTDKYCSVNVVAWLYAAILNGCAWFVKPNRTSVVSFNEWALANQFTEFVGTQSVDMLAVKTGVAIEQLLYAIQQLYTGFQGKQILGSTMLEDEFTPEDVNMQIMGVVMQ
Protocol description: biochemical
Parameters: species or system MERS-CoV
Measured quantity: IC50

{"columns": ["Compound", "Reported measurement"],
 "data": [
  ["CC1(C)[C@@H]2[C@@H](C(=O)N[C@H](C=O)C[C@@H]3CCNC3=O)N(C(=O)c3cc4cccc(C(F)(F)F)c4[nH]3)C[C@@H]21 [Compound 29]", "296 nM"],
  ["CC1(C)[C@@H]2[C@@H](C(=O)N[C@H](C=O)C[C@@H]3CCNC3=O)N(C(=O)CC3CCCCC3(F)F)C[C@@H]21 (stereo partly drawn) [Compound 64]", "224 nM"],
  ["O=C[C@H](C[C@@H]1CCNC1=O)NC(=O)[C@@H]1CC2(CC2)CN1C(=O)c1cc2cccc(Cl)c2[nH]1 [Compound 2]", "199 nM"]
]}

----------
pIC50: recorded values
Tested on: SARS-CoV-2 Mpro (Severe acute respiratory syndrome coronavirus 2, UniProt P0DTD1)
Protocol description: SARS-CoV-2 Mpro enzymatic inhibition assay (fluorescence)
Assay type: biochemical
pIC50: −log10 of the molar value.

{"columns": ["Cpd smiles", "pIC50"],
 "data": [
  ["CC1(C)[C@@H]2[C@@H](C(=O)N[C@H](C=O)C[C@@H]3CCNC3=O)N(C(=O)c3cc4sccc4[nH]3)C[C@@H]21", 7.73],
  ["CC1(C)C[C@@H](C(=O)N[C@H](C=O)C[C@@H]2CCNC2=O)N(C(=O)c2cc3cccc(C#N)c3[nH]2)C1", 7.59],
  ["CO[C@@H]1C[C@@H](C(=O)N[C@H](C=O)C[C@@H]2CCNC2=O)N(C(=O)c2cc3ccccc3[nH]2)C1", 6.80]
]}
